The listing below reports Kd for molecules tested on UniProt:P23975.
Sequence (P23975 whole entry): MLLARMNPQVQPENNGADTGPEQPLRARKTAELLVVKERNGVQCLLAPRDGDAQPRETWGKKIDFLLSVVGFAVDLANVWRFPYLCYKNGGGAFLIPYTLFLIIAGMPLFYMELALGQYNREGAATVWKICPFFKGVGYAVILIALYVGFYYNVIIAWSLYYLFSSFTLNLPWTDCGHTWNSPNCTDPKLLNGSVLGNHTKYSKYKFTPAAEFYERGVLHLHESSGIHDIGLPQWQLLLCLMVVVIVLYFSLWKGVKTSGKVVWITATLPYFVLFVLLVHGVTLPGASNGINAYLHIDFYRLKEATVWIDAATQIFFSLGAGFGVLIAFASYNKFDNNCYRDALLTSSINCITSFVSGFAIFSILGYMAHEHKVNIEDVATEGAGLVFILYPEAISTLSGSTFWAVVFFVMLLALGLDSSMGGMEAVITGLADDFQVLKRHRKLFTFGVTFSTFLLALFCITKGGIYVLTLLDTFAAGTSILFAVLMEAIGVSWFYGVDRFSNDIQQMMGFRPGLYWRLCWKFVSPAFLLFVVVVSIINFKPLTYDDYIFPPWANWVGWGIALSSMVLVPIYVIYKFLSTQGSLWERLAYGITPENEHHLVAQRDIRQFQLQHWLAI
Note: unit nM is implicit; provide only the numeric part.

Reference set (3 entries):
molecule: CC(C)[C@H](O)[C@@H](CN(C)C)c1ccc2ccccc2c1 [Compound D1]
Kd [nM]: 7.4
//
molecule: CNCC(c1ccc2ccccc2c1)C(O)c1ccccc1 (racemic)
Kd [nM]: 0.25
//
molecule: CC(C)C(O)C(CN)c1ccc2ccccc2c1 (single isomer, unassigned)
Kd [nM]: 150

Problem: Please indicate recorded Kd of CC(C)[C@@H](O)[C@H](CN(C)C)c1ccc2ccccc2c1 [Compound D2] measured with UniProt:P23975.
Result: 60

###

The listing below reports Kd for molecules tested on human serotonin transporter (hSERT) (Homo sapiens).
Sequence (P31645 whole entry): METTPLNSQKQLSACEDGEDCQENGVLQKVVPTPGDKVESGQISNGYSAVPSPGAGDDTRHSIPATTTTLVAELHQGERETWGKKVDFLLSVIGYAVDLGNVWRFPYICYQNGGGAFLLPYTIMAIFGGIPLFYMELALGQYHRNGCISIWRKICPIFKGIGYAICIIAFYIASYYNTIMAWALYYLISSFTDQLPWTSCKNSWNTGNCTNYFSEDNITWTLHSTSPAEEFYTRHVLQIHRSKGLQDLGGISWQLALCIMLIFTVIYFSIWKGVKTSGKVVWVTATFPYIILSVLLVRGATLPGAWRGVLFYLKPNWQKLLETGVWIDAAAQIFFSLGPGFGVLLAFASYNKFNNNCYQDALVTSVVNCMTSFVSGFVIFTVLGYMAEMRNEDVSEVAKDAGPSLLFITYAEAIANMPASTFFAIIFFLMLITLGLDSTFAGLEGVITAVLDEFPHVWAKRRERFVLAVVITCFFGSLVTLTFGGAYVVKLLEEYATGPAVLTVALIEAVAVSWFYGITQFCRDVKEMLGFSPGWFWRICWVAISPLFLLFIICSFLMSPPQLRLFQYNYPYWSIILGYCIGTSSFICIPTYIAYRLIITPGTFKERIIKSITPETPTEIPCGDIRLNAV
Note: unit nM is implicit; provide only the numeric part.

molecule: CC(C)[C@@H](O)[C@H](CN(C)C)c1ccc2ccccc2c1 [Compound D2]
assaySystem: human serotonin transporter (hSERT) (Homo sapiens)
Kd, nM: 2.6
//
molecule: CC(C)C(O)C(CN)c1ccc2ccccc2c1 (single isomer, unassigned)
assaySystem: human serotonin transporter (hSERT) (Homo sapiens)
Kd, nM: 15.1
//
molecule: CNCC(c1ccc2ccccc2c1)C(O)c1ccccc1 (racemic)
assaySystem: human serotonin transporter (hSERT) (Homo sapiens)
Kd, nM: 6.3

As a next step, examine the molecule that follows.
Problem: Please indicate recorded Kd of CC(C)[C@H](O)[C@@H](CN(C)C)c1ccc2ccccc2c1 [Compound D1] measured with human serotonin transporter (hSERT) (Homo sapiens).
Result: 4.2

FYI, the data here is from patent US7214826B2.
